# assay.system: native soluble IL-6R in human plasma (human, UniProt P08887)
# protocol: ELISA 3, periplasmic extract; competitor BN-12; human plasma
measured.endpoint: OD450 ratio sample/blank
Number only, please.

Reported OD450 ratio sample/blank, binder IL6RPMP104B8 (VHH) VHH: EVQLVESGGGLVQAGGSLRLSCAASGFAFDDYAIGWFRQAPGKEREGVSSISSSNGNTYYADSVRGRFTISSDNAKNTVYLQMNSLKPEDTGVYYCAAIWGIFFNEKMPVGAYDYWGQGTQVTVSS : ____
1.05

Reported OD450 ratio sample/blank, binder IL6RPMP101D6 (VHH) VHH: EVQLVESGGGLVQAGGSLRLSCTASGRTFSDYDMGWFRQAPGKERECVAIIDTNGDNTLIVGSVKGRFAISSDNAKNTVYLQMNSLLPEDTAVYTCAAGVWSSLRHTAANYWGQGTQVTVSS : ____
0.948

Reported OD450 ratio sample/blank, binder IL6RPMP120A5 (VHH) VHH: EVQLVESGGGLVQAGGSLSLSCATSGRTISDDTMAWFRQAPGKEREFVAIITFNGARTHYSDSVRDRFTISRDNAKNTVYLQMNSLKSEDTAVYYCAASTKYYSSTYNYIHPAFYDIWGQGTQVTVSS : ____
0.988

Reported OD450 ratio sample/blank, binder IL6RPMP105E11 (VHH) VHH: EVQLVESGGGLVQAGGSLRLSCAASGFAFDDYAIGWFRQAPGKEREGVSSISSSNGNTYYADSVRGRFTISSDNAKNTVYLQMNGLKPEDTGVYYCAAIWGIFFNEKMPVGAYDYWGQGTQVTVSS : ____
0.971

Reported OD450 ratio sample/blank, binder IL6RPMP108C10 (VHH) VHH: EVQLVESGGGLVQPGGSLRLSCTASGRTFSDYDMGWFRQAPGKERECVAVIDTNGDNTLTVGSVKGRFAISRDNAKNTVYLQMNSLLPEDTAVYTCAAGAWSSLRSTAANYWGQGTQVTVSS : ____
1.04
